# Tested on: CD2F1 mice, L1210 leukemia ip, survival T/C
# protocol summary: NCI In Vivo Anticancer Drug Screen. Data for tumor model L1210 Leukemia (intraperitoneal) in CD2F1 (CDF1) mice
# conditions: endpoint: mean survival time; dose: 200.0 mg/kg/injection; schedule: Q01DX009 (ip); vehicle: other; higher = longer survival
Inconclusive results and toxic doses are left out.
recorded metric: T/C

Example results:
[
  {
    "compound": "O=C1c2ccccc2CC1c1ccccc1 (stereo not given)",
    "observed result": "100 % of control"
  },
  {
    "compound": "CC1=C(O)C(=O)OC1c1ccc(C)cc1 (stereo not given)",
    "observed result": "104 % of control"
  },
  {
    "compound": "O=C(NNC(=O)C(F)(F)F)c1ccccc1",
    "observed result": "109 % of control"
  },
  {
    "compound": "CCN1C(=O)CSC1=S",
    "observed result": "95 % of control"
  }
]

Now for another entry.
query: // fetch CD2F1 mice, L1210 leukemia ip, survival T/C T/C for CCCC(CC(=O)O)(C(=O)O)c1ccccc1 (stereo not given)
result: 91 % of control

---

# Tested on: CD2F1 mice, L1210 leukemia ip, survival T/C
# protocol summary: NCI In Vivo Anticancer Drug Screen. Data for tumor model L1210 Leukemia (intraperitoneal) in CD2F1 (CDF1) mice
# conditions: endpoint: mean survival time; dose: 400.0 mg/kg/injection; schedule: Q01DX001 (ip); vehicle: saline with Tween-80; higher = longer survival
Toxic doses and inconclusive results are not listed.
This section presents molecules with their documented T/C values.

[
  {
    "molecule": "Cc1ccc(SC(=O)Cc2ccc([N+](=O)[O-])cc2)cc1",
    "T/C": "93 % of control"
  }
]

query: Fill in: T/C of NS(=O)(=O)c1cccc([N+](=O)[O-])c1 is ___
result: 97 % of control

query: Same for Nc1ncnc2nc(SCc3cccc([N+](=O)[O-])c3)[nH]c12
result: 90 % of control

---

This section presents compounds with their documented T/C values.
# System: CD2F1 mice, L1210 leukemia ip, survival T/C
# protocol summary: NCI In Vivo Anticancer Drug Screen. Data for tumor model L1210 Leukemia (intraperitoneal) in CD2F1 (CDF1) mice
# conditions: endpoint: mean survival time; dose: 25.0 mg/kg/injection; schedule: Q01DX009 (ip); vehicle: water; higher = longer survival
Inconclusive results and toxic doses are left out.

[
  {
    "compound": "Cn1cnc([N+](=O)[O-])c1[Se]c1nc(N)nc2nc[nH]c12",
    "T/C": "160 % of control"
  },
  {
    "compound": "CCOC(=O)C(C)Oc1ccc(Cl)cc1 (stereo unspecified)",
    "T/C": "107 % of control"
  },
  {
    "compound": "COc1cc2c(cc1OC)C(C#N)N(C(=O)c1ccccc1)C=C2 (stereo unspecified)",
    "T/C": "93 % of control"
  },
  {
    "compound": "CC(C)C(O)(C(=O)O)C(C)O (stereo unspecified)",
    "T/C": "94 % of control"
  },
  {
    "compound": "COC(=O)C(CSC(c1ccccc1)(c1ccccc1)c1ccccc1)NC(=O)CCNC(=O)OCc1ccccc1 (stereo unspecified)",
    "T/C": "91 % of control"
  }
]

query: Fill in: T/C of CCOC(=O)C1C(=O)N(C)C(=O)N1C (stereo unspecified) is ___
result: 95 % of control

---

This section presents compounds with their documented T/C values.
# System: CD2F1 mice, L1210 leukemia ip, survival T/C
# protocol summary: NCI In Vivo Anticancer Drug Screen. Data for tumor model L1210 Leukemia (intraperitoneal) in CD2F1 (CDF1) mice
# conditions: endpoint: mean survival time; dose: 50.0 mg/kg/injection; schedule: Q01DX009 (ip); vehicle: saline with Tween-80; higher = longer survival
Inconclusive results and toxic doses are left out.

Example results:
[
  {
    "compound": "O=[N+]([O-])c1cccc(N=Nn2cccc2)c1",
    "T/C": "106 % of control"
  },
  {
    "compound": "c1cc(C2CCOCC2)ccn1",
    "T/C": "109 % of control"
  },
  {
    "compound": "COc1cc(OC)c(NC(=O)Nc2ccccc2C(N)=O)cc1Cl",
    "T/C": "111 % of control"
  },
  {
    "compound": "CCS(=O)(=O)OC1CCCCCCC1NC(=O)c1ccccc1 (stereo not drawn)",
    "T/C": "100 % of control"
  },
  {
    "compound": "CN(C)[C@@H]1C(=O)C(C(=O)NCNc2nc3n[nH]nc3c(=O)[nH]2)=C(O)[C@@]2(O)C(=O)C3=C(O)c4c(O)cccc4[C@@](C)(O)[C@H]3C[C@@H]12",
    "T/C": "117 % of control"
  }
]

query: Fill in: T/C of c1cnc2c(c1)ccc1ncccc12 is ___
result: 96 % of control

query: Same for CCOC(=O)C(C)C(O)c1ccc(OC)cc1 (stereo not drawn)
result: 93 % of control

query: Same for CN(C)/N=C/c1cccc(CC(O)(C(F)(F)F)C(F)(F)F)n1
result: 94 % of control

query: Same for CC(=O)OCC1OC(n2ncc3c(Nc4ccccc4)ncnc32)C(OC(C)=O)C1OC(C)=O (stereo not drawn)
result: 100 % of control

query: Same for O=c1[nH]cnc2[nH]ncc12
result: 104 % of control

query: Same for CCOC(=O)c1c(Cl)nc2ccccc2c1Cl
result: 105 % of control

query: Same for Nc1nc(N)c(-c2ccc(Cl)c(Cl)c2)c(/C=C/C=C/c2cccnc2)n1
result: 110 % of control

query: Same for Nc1nc(N)c2nc(-c3ccccc3)c(N)nc2n1
result: 94 % of control

query: Same for O=C(CO)c1ccc([N+](=O)[O-])cc1
result: 101 % of control

---

# Test system: CD2F1 mice, L1210 leukemia ip, survival T/C
# protocol summary: NCI In Vivo Anticancer Drug Screen. Data for tumor model L1210 Leukemia (intraperitoneal) in CD2F1 (CDF1) mice
# conditions: endpoint: mean survival time; dose: 6.25 mg/kg/injection; schedule: Q04DX003 (ip); vehicle: distilled water + Tween-80; higher = longer survival
Toxic doses and inconclusive results are not listed.
recorded metric: T/C

Example results:
[
  {
    "compound": "[Pd].[Pd].[S-]CC[S-].[S-]CC[S-].c1ccc([PH+](c2ccccc2)c2ccccc2)cc1.c1ccc([PH+](c2ccccc2)c2ccccc2)cc1",
    "tested system": "CD2F1 mice, L1210 leukemia ip, survival T/C",
    "T/C": "98 % of control"
  },
  {
    "compound": "COC(=O)C1N=C1c1ccccc1.COC(=O)C1N=C1c1ccccc1.[Cl][Pd][Cl] (centres undefined)",
    "tested system": "CD2F1 mice, L1210 leukemia ip, survival T/C",
    "T/C": "103 % of control"
  },
  {
    "compound": "S=c1nccc[nH]1.[Pt]",
    "tested system": "CD2F1 mice, L1210 leukemia ip, survival T/C",
    "T/C": "103 % of control"
  }
]

Now for another entry.
query: Fill in: T/C of C[NH-].C[NH-].C[NH-].C[NH-].O=C(O)c1cc(C(=O)O)c(C(=O)O)cc1C(=O)O.[Pt+2].[Pt+2] is ___
result: 102 % of control

---

# Tested on: CD2F1 mice, L1210 leukemia ip, survival T/C
# protocol summary: NCI In Vivo Anticancer Drug Screen. Data for tumor model L1210 Leukemia (intraperitoneal) in CD2F1 (CDF1) mice
# conditions: endpoint: mean survival time; dose: 200.0 mg/kg/injection; schedule: Q01DX009 (ip); vehicle: saline with Tween-80; higher = longer survival
# Method: The antitumor activity of compounds was measured in mice bearing transplantable tumors. Survival or tumor size were measured and the results are expressed as the measurement made in the treated group (T) divided by the measurement made in the vehicle treated control group (C). The tumor model used in this assay is L1210 Leukemia (intraperitoneal) in CD2F1 (CDF1) mice
Toxic doses and inconclusive results are not listed.
This section presents compounds with their documented T/C values.

[
  {
    "compound": "O=[N+]([O-])c1ccc2ccccc2c1I",
    "T/C": "98 % of control"
  },
  {
    "compound": "O=C(Nc1ccc(F)c(Cl)c1)Oc1ccc(F)cc1Cl",
    "T/C": "104 % of control"
  },
  {
    "compound": "Cc1ccc(S(=O)(=O)N=P(c2ccccc2)(c2ccccc2)c2ccccc2)cc1",
    "T/C": "88 % of control"
  },
  {
    "compound": "O=C1NC(c2ccccc2)C([N+](=O)[O-])=C1O (stereo unspecified)",
    "T/C": "95 % of control"
  },
  {
    "compound": "CCCCNC(=O)Nc1ccc(C(=O)OCC(C)C)cc1",
    "T/C": "91 % of control"
  }
]

Now for another entry.
query: Fill in: T/C of CCOC(=O)C(C(=O)OCC)C(=O)c1cccc2c1ccc1ccccc12 is ___
result: 93 % of control
